The following sequences are listed with their measured binding signal values.
Target: GST-Nv-NF-kB (Ser allele) (Nematostella vectensis, UniProt A7UNT2 2-411)
Sequence: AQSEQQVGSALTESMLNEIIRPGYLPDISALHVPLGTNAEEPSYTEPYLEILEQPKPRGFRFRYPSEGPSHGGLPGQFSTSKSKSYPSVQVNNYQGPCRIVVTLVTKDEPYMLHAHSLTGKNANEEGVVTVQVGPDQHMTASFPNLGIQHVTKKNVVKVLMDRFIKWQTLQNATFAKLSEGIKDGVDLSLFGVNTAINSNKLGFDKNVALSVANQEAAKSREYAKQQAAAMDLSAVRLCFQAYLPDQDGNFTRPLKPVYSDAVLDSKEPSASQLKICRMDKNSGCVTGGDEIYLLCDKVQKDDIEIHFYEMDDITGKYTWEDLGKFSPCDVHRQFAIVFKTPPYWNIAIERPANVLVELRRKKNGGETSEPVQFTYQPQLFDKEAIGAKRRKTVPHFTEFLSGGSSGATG
Experiment: protein-binding microarray (PBM); PBM: ~300 nM protein, 6 mM HEPES pH 7.8, 80 mM KCl, 0.5 mM EDTA, 0.5 mM EGTA, 6% glycerol, 35 ng/ul poly-dIdC, 1% milk, 1 h, room temperature; Ap Aiptasia and Nv Nematostella (sea anemones) / Co Capsaspora / Aq Amphimedon (sponge) / Dm Drosophila / Hu human; RHD is the Rel homology domain; high values mean tight binding
Details: dsDNA, one strand shown
# value in z-score; strip the unit string

# input-sequence, assay-target, data-value
rows = [
    ("CCGATTAACATCAATATTCCCCATGATGTTAATCGGGTCTTGATTCGCTTGACGCTGCTG", "GST-Nv-NF-kB (Ser allele) (Nematostella vectensis, UniProt A7UNT2 2-411)", 8.19),
]

sequence "CCGATTAACATCAAAATTCCCCGTGATGTTAATCGGGTCTTGATTCGCTTGACGCTGCTG" , binding signal observed: 11.6

sequence "CCGATTAACATCAAAATTGCCCCTGATGTTAATCGGGTCTTGATTCGCTTGACGCTGCTG" , binding signal observed: 5.76

sequence "CCGATTAACATCAGGGGAAATAATGATGTTAATCGGGTCTTGATTCGCTTGACGCTGCTG" , binding signal observed: 11.6

sequence "CCGATTAACATCAAGATTCCCCCTGATGTTAATCGGGTCTTGATTCGCTTGACGCTGCTG" , binding signal observed: 10.6

sequence "CCGATTAACATCAAAATTCCCGCTGATGTTAATCGGGTCTTGATTCGCTTGACGCTGCTG" , binding signal observed: 5.62

sequence "CCGATTAACATCACCCTTCCCCCTGATGTTAATCGGGTCTTGATTCGCTTGACGCTGCTG" , binding signal observed: 5.26

sequence "CCGATTAACATCAAAATTTCCCATGATGTTAATCGGGTCTTGATTCGCTTGACGCTGCTG" , binding signal observed: 6.16

sequence "CCGATTAACATCACAAAAAACCCTGATGTTAATCGGGTCTTGATTCGCTTGACGCTGCTG" , binding signal observed: 4.38

sequence "CCGATTAACATCAAGGAAATCCCTGATGTTAATCGGGTCTTGATTCGCTTGACGCTGCTG" , binding signal observed: 2.74

sequence "CCGATTAACATCAGGTAATTACCTGATGTTAATCGGGTCTTGATTCGCTTGACGCTGCTG" , binding signal observed: 5.28

sequence "CCGATTAACATCATATTTCCCCATGATGTTAATCGGGTCTTGATTCGCTTGACGCTGCTG" , binding signal observed: 10.1

sequence "CCGATTAACATCACATCCCCCCCTGATGTTAATCGGGTCTTGATTCGCTTGACGCTGCTG" , binding signal observed: 4.88

sequence "CCGATTAACATCAAAGAAGTCCCTGATGTTAATCGGGTCTTGATTCGCTTGACGCTGCTG" , binding signal observed: 6.97

sequence "CCGATTAACATCAGGGGAGTTACTGATGTTAATCGGGTCTTGATTCGCTTGACGCTGCTG" , binding signal observed: 4.83

sequence "CCGATTAACATCACAGTTTCCCCTGATGTTAATCGGGTCTTGATTCGCTTGACGCTGCTG" , binding signal observed: 10.3

sequence "CCGATTAACATCAGGGAATCCCCTGATGTTAATCGGGTCTTGATTCGCTTGACGCTGCTG" , binding signal observed: 14.6

sequence "CCGATTAACATCAGGGGAAAATATGATGTTAATCGGGTCTTGATTCGCTTGACGCTGCTG" , binding signal observed: 11.7
